Recorded measurements of log10(Km), one per entry
System: BrGH3A
Construct: C-FnIII-N domain order is natural
ASSAY: p-nitrophenol release, absorbance […] nm
Type: biochemical, metagenome: bovine ruminal fluid
COND: 0.1 M sodium citrate, pH 5.0, 40°C, 5 min
Recorded Km (log10, mM)

In: Provide log10(Km), tested on BrGH3A, for O=[N+]([O-])c1ccc(O[C@@H]2OC[C@H](O)[C@H](O)[C@H]2O)cc1 [pNP-Ara, p-nitrophenyl-α-L-arabinopyranoside] .
Out: 1.00

In: Provide log10(Km), tested on BrGH3A, for O=[N+]([O-])c1ccc(O[C@@H]2OC[C@@H](O)[C@H](O)[C@H]2O)cc1 [pNP-Xyl, p-nitrophenyl-β-D-xylopyranoside] .
Out: 0.33

In: Provide log10(Km), tested on BrGH3A, for O=[N+]([O-])c1ccc(O[C@@H]2O[C@H](CO)[C@H](O)[C@H](O)[C@H]2O)cc1 [pNP-Gal, p-nitrophenyl-β-D-galactopyranoside] .
Out: 0.88

In: Provide log10(Km), tested on BrGH3A, for O=[N+]([O-])c1ccc(O[C@@H]2O[C@H](CO)[C@@H](O)[C@H](O)[C@H]2O)cc1 [pNP-Glc, p-nitrophenyl-β-D-glucopyranoside] .
Out: -0.22

In: Provide log10(Km), tested on BrGH3A, for C[C@H]1O[C@@H](Oc2ccc([N+](=O)[O-])cc2)[C@H](O)[C@@H](O)[C@H]1O [pNP-Fuc, p-nitrophenyl-β-D-fucopyranoside] .
Out: 0.90
